Target: human CCR8 (human, UniProt P51685 1-355)
Assay: cell-based or functional assay
measured.endpoint: residual hCCL1 (100 nM) Gi2 response, protocol #3, mAb 0.05 µg/mL (%)
Please respond with the number in % and leave the unit unwritten.

Guide cases for residual hCCL1 (100 nM) Gi2 response, protocol #3, mAb 0.05 µg/mL, answers given:
{"binder": "anti-CCR8 mAb 1-18 (antibody, V domains shown, Murine hybridoma mAb) VH: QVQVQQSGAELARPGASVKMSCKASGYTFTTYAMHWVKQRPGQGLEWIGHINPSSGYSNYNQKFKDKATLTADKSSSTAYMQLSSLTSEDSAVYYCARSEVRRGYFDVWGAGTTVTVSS VL: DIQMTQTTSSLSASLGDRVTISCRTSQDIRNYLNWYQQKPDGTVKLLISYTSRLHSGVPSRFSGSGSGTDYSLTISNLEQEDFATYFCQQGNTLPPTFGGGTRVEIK", "result.number": 76}
{"binder": "anti-CCR8 mAb 1-9 (antibody, V domains shown, Murine hybridoma mAb) VH: EVQLVESGGGLVQPKGSLKLSCAASGFTFNAYAMNWVRQAPGKGLEWLARIRSKSNNYATYYADSVKDRFTISRDDSQSMFYLQMNNLKSEDTAMYYCVRGREAYYRYDGGYYAMDYWGQGTSVTVSS VL: EIVMTQAALSAPVTPGESVSMSCRSSKSLLHSNGNTYLYWFLQRPGQSPQLLIYRMSNLASGVPDRFSGSGSGTAFTLRISRVEAEDVGVYYCMQHLEYPFTFGSGTKLEIK", "result.number": 73}

Attention now shifts to the item below.
Q: Reported residual hCCL1 (100 nM) Gi2 response, protocol #3, mAb 0.05 µg/mL, binder anti-CCR8 mAb 1-17 (antibody, V domains shown, Murine hybridoma mAb) VH: QVQLQQPGSELVRPGASVKLSCKASGYTFTSYWMHWVKQRPGQGLEWIGNIWPGSASTNYDEKFKNKATLTVDTSSSTAYMQLSSLTSEDSAVYYCIRGGKGAMDYWSQGTSVTVSS VL: DVVMTQIPLSLPVSLGDQASISCRSSQSLENSYGNTYLNWYLQKPGQSPQLLIYRVSNRFSGVLDRFSGSGSGTDFTLKISRVEAEDLGVYFCLQVTHVPPTFGAGTKLELK : ____
A: 116
